Numbers sourced from ChEMBL document CHEMBL1150175.

experiment: Inhibition of A23187-induced LTB4 formation in human polymorphonuclear leukocytes; assay type: functional, cell-based; conditions: Homo sapiens; read-out: IC50
pIC50: −log10 of the molar value.
Mark NOT MET for pIC50 values under 4, and MET for everything at or above.

Does pIC50 meet or surpass 4 for O=C(/C=C/c1ccc(O)c(O)c1)OC(C(=O)O)C(O)C(=O)O (configuration not stated) [CAFFEOYLTARTARIC ACID] ?
NOT MET

Record O=C(/C=C/c1ccc(O)c(O)c1)O[C@H](Cc1ccc(O)c(O)c1)C(=O)O [ROSMARINIC ACID] ; criterion: pIC50 no lower than 4. Met?
MET

Does the reported pIC50 for O=C(O)CC(OC(=O)/C=C/c1ccc(O)c(O)c1)C(=O)O (configuration not stated) [CAFFEOYLMALIC ACID] fall at or above the 4 mark?
NOT MET

Answer whether pIC50 of O=C(O)/C=C/c1ccc(O)c(O)c1 [CAFFEIC ACID] is greater than or equal to 4.
NOT MET

hey, is pIC50 for this one >= 4? O=C(/C=C/c1ccc(O)c(O)c1)O[C@H]1[C@H](O)C[C@](O)(C(=O)O)C[C@H]1OC(=O)/C=C/c1ccc(O)c(O)c1
NOT MET

---

test: Inhibition of A23187-induced 12-hydroxy-5,8,10-heptadecatrienoic acid formation in human polymorphonuclear leukocytes; type: functional, cell-based
Consider the following molecules; for each one, report its IC50.
Write it as a number; the unit µM goes unstated.

Requested field: IC50. Item: O=C(/C=C/c1ccc(O)c(O)c1)O[C@H](Cc1ccc(O)c(O)c1)C(=O)O
459

Sample O=C(/C=C/c1ccc(O)c(O)c1)O[C@@H]1[C@H](O)C[C@@](O)(C(=O)O)C[C@H]1OC(=O)/C=C/c1ccc(O)c(O)c1 — what was its IC50?
80

Quick one: IC50 of O=C(/C=C/c1ccc(O)c(O)c1)O[C@H]1[C@H](O)C[C@](O)(C(=O)O)C[C@H]1OC(=O)/C=C/c1ccc(O)c(O)c1 ?
740

Which value of IC50 has been reported for O=C(/C=C/c1ccc(O)c(O)c1)O[C@@H]1C[C@](O)(C(=O)O)C[C@@H](OC(=O)/C=C/c2ccc(O)c(O)c2)[C@H]1O in the records?
902

GET /values?readout=IC50&item= O=C(O)CC(OC(=O)/C=C/c1ccc(O)c(O)c1)C(=O)O (stereo not given)
796

---

test: Formation of 15HETE in A-23187-stimulated human polymorphonuclear leukocytes at 1000 uM relative to control; assay type: functional
assay readout: Activity (%)
Answer with a number only, understood to be in %.

Bench note: what Activity did O=C(O)CC(OC(=O)/C=C/c1ccc(O)c(O)c1)C(=O)O (stereo not given) show?
114.8

For the compound shown here, O=C(/C=C/c1ccc(O)c(O)c1)O[C@H]1[C@H](O)C[C@](O)(C(=O)O)C[C@H]1OC(=O)/C=C/c1ccc(O)c(O)c1 , give the reported Activity.
56.9

Given O=C(O)/C=C/c1ccc(O)c(O)c1 , state its recorded Activity.
96.5

I am curious: what Activity value has been reported for O=C(/C=C/c1ccc(O)c(O)c1)O[C@@H]1C[C@](O)(C(=O)O)C[C@@H](OC(=O)/C=C/c2ccc(O)c(O)c2)[C@H]1O ?
50.9

Request the reported Activity associated with O=C(/C=C/c1ccc(O)c(O)c1)OC(C(=O)O)C(O)C(=O)O (stereo not given)
55
